Form: system (Amine oxidase [flavin-containing] A (Rattus norvegicus, UniProt P21396)), quantity (IC50), values below.
Write down the numeric answer in µM and omit the unit.

>  <molecular string>
CCOc1cncc(OCc2ccccc2)c1CN

>  <test system>
Amine oxidase [flavin-containing] A (Rattus norvegicus, UniProt P21396)
Sequence (P21396 whole entry): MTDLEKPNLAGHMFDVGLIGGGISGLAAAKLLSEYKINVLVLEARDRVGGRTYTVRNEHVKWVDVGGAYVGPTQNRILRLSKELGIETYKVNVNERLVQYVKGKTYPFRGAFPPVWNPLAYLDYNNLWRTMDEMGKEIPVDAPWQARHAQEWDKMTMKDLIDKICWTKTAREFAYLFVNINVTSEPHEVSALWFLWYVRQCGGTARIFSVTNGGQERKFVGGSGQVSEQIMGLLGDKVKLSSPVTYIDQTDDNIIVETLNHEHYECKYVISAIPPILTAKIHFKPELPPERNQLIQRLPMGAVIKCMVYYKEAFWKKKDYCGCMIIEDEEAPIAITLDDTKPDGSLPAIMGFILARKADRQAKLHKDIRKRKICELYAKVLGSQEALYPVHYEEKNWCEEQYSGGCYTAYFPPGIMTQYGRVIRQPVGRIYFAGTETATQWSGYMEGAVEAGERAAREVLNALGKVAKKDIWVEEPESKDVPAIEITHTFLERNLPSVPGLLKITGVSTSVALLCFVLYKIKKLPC

>  <observed>
630

$$$$
>  <molecular string>
NCc1ccncc1NCC1CCCCC1

>  <test system>
Amine oxidase [flavin-containing] A (Rattus norvegicus, UniProt P21396)

>  <observed>
95

$$$$
>  <molecular string>
CC(C)Nc1cnccc1CN

>  <test system>
Amine oxidase [flavin-containing] A (Rattus norvegicus, UniProt P21396)

>  <observed>
2200

$$$$
>  <molecular string>
CCNc1cncc(N(C)CC)c1CN

>  <test system>
Amine oxidase [flavin-containing] A (Rattus norvegicus, UniProt P21396)

>  <observed>
63

$$$$

## Task // fetch IC50 given entry CCNc1cnccc1CN
## Result 300

## Task Return IC50 for the following molecule: CNc1cnccc1CN
## Result 420

## Task For CNc1cncc(N(C)C)c1CN , write its IC50.
## Result 44

Cited source for all entries: ChEMBL document CHEMBL1141879
